experiment: solubility in water; conditions: water
measurement_name: solubility

1) COc1ccc2[nH]c([S+]([O-])Cc3ncc(C)c(OC)c3C)nc2n1 (racemic) [racemic tenatoprazole]
< 1000 µg/mL

----------
assay: in vivo; conditions: dog, plasma, po, 50 mg/kg
measurement_name: Tmax

1) COc1ccc2[nH]c([S+]([O-])Cc3ncc(C)c(OC)c3C)nc2n1 (racemic) [racemic tenatoprazole]
1.5 h
